Answer each item with its documented IC50 at 72 h.
Assay: Cytotoxicity against human HK-2 cells assessed as inhibition of cell growth incubated for 72 hrs by CCK-8 assay
Type: toxicity, cell-based
Please reply with the bare figure in µg/mL and do not write the unit itself.

[ask] Entry "CCCCCCCCCC(=O)N[C@H](CCN)C(=O)N[C@H]1CCNC(=O)[C@H]([C@@H](C)O)NC(=O)[C@H](CCN)NC(=O)[C@H](CCN)NC(=O)[C@H](CC(C)C)NC(=O)[C@@H](Cc2cccc(Cl)c2)NC(=O)[C@H](CCN)NC1=O" : reported IC50 at 72 h = ?
[reply] 42.5

[ask] Entry "CCCCCCCCCC(=O)N[C@H](CCN)C(=O)N[C@H]1CCNC(=O)[C@H](Cc2ccccc2)NC(=O)[C@H](CCN)NC(=O)[C@H](CCN)NC(=O)[C@H](Cc2ccccc2)NC(=O)[C@@H](CC(C)C)NC(=O)[C@H](CCN)NC1=O" : reported IC50 at 72 h = ?
[reply] 43.1
